Values were extracted from ChEMBL document CHEMBL4308848.

Observed property: IC50

Q. Look up IC50 with Bromodomain-containing protein 4 (Homo sapiens) for this compound: Cc1ccc(Nc2nccc(-c3c(-c4ccc(F)cc4)ncn3C3CCNCC3)n2)cc1C
A. > 250 µM

---

target: Bromodomain-containing protein 4 (Homo sapiens); test: Binding affinity to BRD4 bromodomain 1 (unknown origin) expressed in Escherichia coli Bl21(DE3) by isothermal-titration calorimetry
Observed property: pKd
Conceptually, pKd converts a concentration in mol/L into minus its log10.

Q. Could you share which pKd value was measured for Cc1ccc(Nc2nccc(-c3c(-c4ccc(F)cc4)ncn3C3CCNCC3)n2)cc1C ?
A. 5.74

---

Please respond with reported IC50 for every item in the list.
target: Bromodomain-containing protein 2 (Homo sapiens); assay: Inhibition of BRD2 C-terminal bromodomain 2 (unknown origin) expressed in Escherichia coli Bl21(DE3) by alpha-screen assay
Sequence (P25440 whole entry): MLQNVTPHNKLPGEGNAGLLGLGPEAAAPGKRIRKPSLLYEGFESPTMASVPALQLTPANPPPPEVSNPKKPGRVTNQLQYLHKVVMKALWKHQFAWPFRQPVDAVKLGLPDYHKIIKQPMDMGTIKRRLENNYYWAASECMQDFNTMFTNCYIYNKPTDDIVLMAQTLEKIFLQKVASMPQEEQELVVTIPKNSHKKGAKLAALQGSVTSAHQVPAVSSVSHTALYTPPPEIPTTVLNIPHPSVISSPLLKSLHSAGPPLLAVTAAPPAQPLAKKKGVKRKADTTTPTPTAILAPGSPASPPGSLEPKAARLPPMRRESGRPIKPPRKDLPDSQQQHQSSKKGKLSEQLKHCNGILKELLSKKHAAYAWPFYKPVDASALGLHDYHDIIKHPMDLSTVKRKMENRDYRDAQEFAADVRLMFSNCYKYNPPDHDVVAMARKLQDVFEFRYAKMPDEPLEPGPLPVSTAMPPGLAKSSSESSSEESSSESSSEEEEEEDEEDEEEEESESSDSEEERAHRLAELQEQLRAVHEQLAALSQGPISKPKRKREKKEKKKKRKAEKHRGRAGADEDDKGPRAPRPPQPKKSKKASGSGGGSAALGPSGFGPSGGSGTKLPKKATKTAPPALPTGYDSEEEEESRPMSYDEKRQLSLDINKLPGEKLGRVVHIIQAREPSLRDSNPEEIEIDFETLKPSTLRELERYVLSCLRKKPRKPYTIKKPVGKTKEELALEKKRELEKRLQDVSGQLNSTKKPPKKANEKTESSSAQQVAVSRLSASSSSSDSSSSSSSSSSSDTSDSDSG
Report as a plain number; the unit µM is understood.

Q. Could you share which IC50 value was measured for Cc1cc(C)cc(Nc2nccc(-c3c(CO)nnn3C3CCNCC3)n2)c1 ?
A. 260

Q. Could you share which IC50 value was measured for Cc1cc(C)cc(Nc2nccc(-c3c(-c4ccc(F)cc4)nnn3C3CCNCC3)n2)c1 ?
A. 30

Q. Could you share which IC50 value was measured for Cc1cc(C)cc(Nc2nccc(-c3c(C)nnn3C3CCNCC3)n2)c1 ?
A. 12

Q. Could you share which IC50 value was measured for Cc1cc(C)cc(Nc2nccc(-c3c(-c4ccc(F)cc4)ncn3C3CCNCC3)n2)c1 ?
A. 67
